- Experiment description: Ratio of drug level in mouse brain to plasma at 3 mg/kg, po qd after 20 mins by LC-MS/MS analysis
- Assay type: ADME, organism-based
- Design: dose 3 mg/kg, route oral
Property label: Kp at 20 min
// keep it numeric: no unit symbol after the value

What value of Kp at 20 min has been reported for the following compound? O=S1(=O)NCN(C2CC2)c2ccc(Cl)cc21 1.12

---

Emax overview
- Tested on: Primary neuron
- Experiment description: Positive allosteric modulation of AMPA receptor in rat embryonic cortex primary neuronal culture assessed as maximal increase in AMPA-induced membrane depolarization normalized to AMPA-evoked response by microplate reader
- Type: cell membranes

Below, each entry is followed by its recorded Emax result.
> print(dat)
               structure.as.smiles  obs.value
1  O=S1(=O)NCN(C2CC2)c2cc(Cl)ccc21        > 5
2      O=S1(=O)NCN(C2CC2)c2cccnc21         10
3      O=S1(=O)NCN(C2CC2)c2ccncc21       > 11
4  O=S1(=O)NCN(C2CC2)c2cccc(Cl)c21        > 9

What value of Emax has been reported for the following compound? O=S1(=O)NCN(C2CC2)c2c(Cl)cccc21 > 3

And for O=S1(=O)NCN(C2CC2)c2ccc(Cl)cc21 ? 11

Data origin: ChEMBL document CHEMBL3351484
